Reference for the values: the supplement of paper PMC9170038

System: MS2 coat protein
Procedure Details: apparent KD of MS2 coat protein, switch ON state; designed switch direction (-1 OFF switch, 1 ON switch): -1; higher = weaker reporter binding
Settings: FMN input: 0 or 200 uM; Eterna round: R93 (includes R88 designs)
Recorded measurements of apparent KD of MS2 coat protein, one per entry

# Chain, apparent KD of MS2 coat protein
data = [
    ("AAAACUGGAGGAUAUACAUGAGGAUCACCCAUGUGUGGAUGAGCUGUGUCGGCGUCAAGUAGAAGGCCACAAAA [Gilly Gone Silly 36 - Jieux - Exclusion 3]", "36.7 nM"),
    ("AAAAUGGCAGGAUAUACUAAAAUAAAAAACUAUGCUAAAACACAUGAGGAUCACCCAUGUAGAAGGGCCAAAAA [AJ 5]", "26.2 nM"),
    ("AAAACGUGAGGAUAUACAUGAGGAUCACCCAUGUGAAACAGGAAAAACUGAAAGAAAAGUAGAAGGCACGAAAA [Tweaking Eli]", "29 nM"),
    ("AAUGCGGCAGGAUAUACAUGAGGAUCACCCAUGUAGAUCAGAUAUAUGGGAAAGCCAUGUAGAAGGGCCGCAAA [Ex 3May 61]", "94.6 nM"),
]

----------
System: MS2 coat protein
Procedure Details: apparent KD of MS2 coat protein; designed switch direction (-1 OFF switch, 1 ON switch): -1; higher = weaker reporter binding
Settings: input ligand: none
Recorded measurements of apparent KD of MS2 coat protein, one per entry
Quantity Name: apparent KD of MS2 coat protein (nM)

# Chain, Units, Result Value
measured = [
    ("UUCAUGUUAGGAUAUUCCGCUGCAGAGAAAGAGUGCAGAAUGAAGAAGGGACAUGAGGAUCACCCAUGUUCCAA [EX4 A.8] (Eterna round: R97, puzzle: Exclusion 4)", "nM", 15.5),
    ("ACUCUUCUUGUUAGGAUAUGCAUCGGGCUUCCGCAGCAGAAGGAACAUGAGGAUCACCCAUGUCAAAUAAAAUC (Eterna round: R97, puzzle: Brourd's mod of Exclusion 4)", "nM", 20.8),
    ("CUGCUCCGUGUAGGAUAUGCGCGCACCCACCGCGCAGAAGGACAUGAGGAUCACCCAUGUAUGUUAUUAUCACGUGAGGCGCAG [Design 35] (Eterna round: R96, puzzle: Exclusion NG 1)", "nM", 19.2),
    ("CGCCUCAGCACAUGAGGAUCACCCAUGUACAAAAGUCCCAGGGAGGAUAUCUGCUGGUUGACUAGAGAGAAGGCCCAUACUAAC [Eternabot solution 45] (Eterna round: R96, puzzle: Exclusion NG 3)", "nM", 45),
]

----------
System: MS2 coat protein
Procedure Details: apparent KD of MS2 coat protein; designed switch direction (-1 OFF switch, 1 ON switch): 1; higher = weaker reporter binding
Settings: Eterna round: R95; input ligand: microRNA oligo, concentration not stated
Recorded measurements of apparent KD of MS2 coat protein, one per entry

# Chain, apparent KD of MS2 coat protein (nM)
rows = [
    ("UUUUUUUUUUAGAGACAAGCUUUUUGAUCACAUGAGGAUCACCCAUGUCUCGUCUUAUUUUUUUUUUUUUUUUUUUU [BA Sensor hsa-mir-208a - 2 - 4] (puzzle: Sensor for hsa-mir-208a)", 17.5),
    ("UAAACUUCUUUUAGUGUGUUGCGAGUGAAACAUGAGGAUCACCCAUGUAAAGGAUUGUGGUAUUUUGUUCGUCUUAA [JR_SHM208A_Sub075] (puzzle: Sensor for hsa-mir-208a)", 41.4),
    ("GUAAGGCAAGCUUUUUUCUCGUAGUGUAAACAUGAGGAUCACCCAUGUGCUCGCCCUGGAUCUUUGAAUCGCAGAAA [Ritiorreon] (puzzle: Sensor for hsa-mir-208a)", 23.1),
    ("ACAGCCGGCACUGAGGAUAUUCAUAUUAAAACAUGAGGAUCACCCAUGUAGGCCAGAAGGCCUUGGGAGAAGGCAGGUCGGCUGA [Mat - Same State 2 - Mod of UCT - D64] (puzzle: Same State 2)", 229),
    ("CCGGUACAUGAGGAUCACCCAUGUUGCGGCAGGACAGGAUAUGGGCGAGAAUAUGUAGGCCCAGAAGGGUCAUCAC [Qure] (puzzle: Same State 1)", 42.1),
    ("AGUCCAGCCUAAGCUGGACAAAAGCAUGUACAUGAGGAUCACCCAUGUUCAUGUACAAGCUUUUUGCAAGUCAAAAG [Mat - hsa-mir-208a - Mod of JL - 76] (puzzle: Sensor for hsa-mir-208a)", 28.1),
    ("ACAAGCUUUUUUGUAGUGAAAGGUGGGAUACAUGAGGAUCACCCAUGUAUUGUUGUUAAUAUUGGACCUCGUCUUAU [JR_SHM208A_Sub084] (puzzle: Sensor for hsa-mir-208a)", 14.2),
    ("GGGCCAGCCUGUGCUGGGCUUUAGCAUGCACAUGAGGAUCACCCAUGUCGUGUACAUGCUUUUUGCUCGUCUUUAAA [Photon Torp-08] (puzzle: Sensor for hsa-mir-208a)", 17.4),
    ("GCUUCACAUGAGGAUCACCCAUGUCUUCGGAGUCGAGGAUAUGGUCACUGUAAACAGUGGCCAGAAGGCGAGGAGC [SS1 - Son of Teenbexe v7] (puzzle: Same State 1)", 46.4),
    ("AACAAUCUAUCUGAGGAUAUCAUGAAAAAAACAUGAGGAUCACCCAUGUGCAGGAAAACUGCAUAUGAGAAGGCAGAUAGAUUGU [salish99_SS2_r3_002] (puzzle: Same State 2)", 621),
    ("AGUCCAGCCUGAGCUGGACAAAAGUAUGUACAUGAGGAUCACCCAUGUCAUGUACAAGCUUUUUGCUCGUUUUAAUA [Zipper 49 - 17] (puzzle: Sensor for hsa-mir-208a)", 33.8),
]
